assay-system: Cholinesterase (Homo sapiens, UniProt P06276)
Sequence (P06276 whole entry): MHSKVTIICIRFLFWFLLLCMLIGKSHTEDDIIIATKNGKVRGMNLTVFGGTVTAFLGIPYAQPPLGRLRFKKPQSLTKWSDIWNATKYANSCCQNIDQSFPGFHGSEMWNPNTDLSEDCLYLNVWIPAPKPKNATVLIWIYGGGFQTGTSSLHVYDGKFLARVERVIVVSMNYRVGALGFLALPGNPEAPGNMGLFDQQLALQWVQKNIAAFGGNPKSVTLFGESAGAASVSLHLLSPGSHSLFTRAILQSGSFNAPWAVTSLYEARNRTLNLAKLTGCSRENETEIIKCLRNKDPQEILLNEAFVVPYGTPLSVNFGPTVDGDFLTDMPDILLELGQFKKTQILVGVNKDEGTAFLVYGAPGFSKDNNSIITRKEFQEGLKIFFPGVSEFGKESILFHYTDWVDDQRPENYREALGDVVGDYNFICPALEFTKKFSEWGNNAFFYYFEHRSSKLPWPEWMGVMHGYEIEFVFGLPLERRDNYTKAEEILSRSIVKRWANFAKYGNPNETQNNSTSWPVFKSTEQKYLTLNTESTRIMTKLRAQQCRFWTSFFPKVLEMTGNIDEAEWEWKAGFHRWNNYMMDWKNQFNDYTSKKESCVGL
test-details: Inhibition of BuChE (unknown origin) assessed as decrease in thiocholine accumulation by spectrophotometry
measured-parameter: IC50 (mM)

>  <compound>
Cc1ccc2c(c1)c1c(n2CCc2ccc(C)nc2)CCN(C)C1 [LATREPIRDINE]

>  <measurement-units>
mM

>  <val>
7.9

$$$$

----------
assay-system: Cholinesterase (Homo sapiens, UniProt P06276)
test-details: Inhibition of human BuChE
measured-parameter: IC50

>  <structure-as-smiles>
CC[C@@H](CN1CCCC1=O)C(=O)NCCCCCCCNc1c2c(nc3cc(Cl)ccc13)C[C@H]1C=C(C)C[C@@H]2C1

>  <measured-parameter>
IC50

>  <val>
232 nM

$$$$

----------
assay-system: Beta-secretase 1 (Homo sapiens)
Sequence (P56817 whole entry): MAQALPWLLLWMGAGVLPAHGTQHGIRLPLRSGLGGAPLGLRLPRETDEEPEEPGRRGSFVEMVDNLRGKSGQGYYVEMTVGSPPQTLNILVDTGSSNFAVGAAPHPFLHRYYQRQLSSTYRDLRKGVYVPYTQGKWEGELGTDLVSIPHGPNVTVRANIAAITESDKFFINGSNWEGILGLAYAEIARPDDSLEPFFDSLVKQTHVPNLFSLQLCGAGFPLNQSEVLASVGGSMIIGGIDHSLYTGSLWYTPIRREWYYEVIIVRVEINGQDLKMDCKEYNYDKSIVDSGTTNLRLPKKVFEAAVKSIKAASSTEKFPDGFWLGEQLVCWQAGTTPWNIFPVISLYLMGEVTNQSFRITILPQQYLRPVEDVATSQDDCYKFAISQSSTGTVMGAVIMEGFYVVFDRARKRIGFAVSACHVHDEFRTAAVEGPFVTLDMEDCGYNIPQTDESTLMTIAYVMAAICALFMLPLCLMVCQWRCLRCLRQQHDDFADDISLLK
test-details: Inhibition of human recombinant BACE-1 using 19F peptide as substrate measured after 5 hrs by fluorescence method
measured-parameter: IC50

>  <compound>
O=c1[nH]c(=O)c2cc[nH]c2[nH]1 [7-DEAZAXANTHINE]

>  <val>
300 nM

$$$$

----------
assay-system: UniProtKB P49841
Sequence (P49841 whole entry): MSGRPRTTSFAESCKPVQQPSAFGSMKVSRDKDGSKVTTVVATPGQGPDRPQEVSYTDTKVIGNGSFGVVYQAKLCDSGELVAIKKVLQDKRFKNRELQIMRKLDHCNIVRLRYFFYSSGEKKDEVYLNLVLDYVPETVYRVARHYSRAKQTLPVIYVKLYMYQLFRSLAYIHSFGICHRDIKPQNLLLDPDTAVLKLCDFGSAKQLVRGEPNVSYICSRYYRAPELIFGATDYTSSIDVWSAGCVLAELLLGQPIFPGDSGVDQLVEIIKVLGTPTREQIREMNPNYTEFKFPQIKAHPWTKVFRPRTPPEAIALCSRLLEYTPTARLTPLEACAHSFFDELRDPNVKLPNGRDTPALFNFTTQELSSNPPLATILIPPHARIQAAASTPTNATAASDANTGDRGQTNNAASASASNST
test-details: Inhibition of human recombinant GSK-3beta using 19F peptide as substrate measured after 1.5 hrs by fluorescence method
pIC50: −log10 of the molar value.

>  <structure-as-smiles>
O=c1[nH]c(=O)c2cc[nH]c2[nH]1

>  <pIC50>
6.15

$$$$

----------
assay-system: Cholinesterase (Homo sapiens, UniProt P06276)
test-details: Inhibition of BChE (unknown origin)
pIC50: −log10 of the molar value.
measured-parameter: pIC50

>  <structure-as-smiles>
CCN1CCc2c(c3ccccc3n2CCC(=O)N2c3ccccc3Sc3ccccc32)C1

>  <val>
6.28

$$$$

----------
pIC50: −log10 of the molar value.
pIC50 data for Acetylcholinesterase (Homo sapiens) follow.
measured-parameter: pIC50

>  <structure-as-smiles>
Cc1ccc2[nH]c3c(c2c1)CN(CCCCCCN1CCc2[nH]c4ccc(C)cc4c2C1)CC3

>  <measured-parameter>
pIC50

>  <val>
6.71

$$$$
>  <structure-as-smiles>
CC[C@@H](CN1CCCC1=O)C(=O)NCCCCCCCNc1c2c(nc3cc(Cl)ccc13)C[C@H]1C=C(C)C[C@@H]2C1

>  <measured-parameter>
pIC50

>  <val>
8.38

$$$$

----------
assay-system: Glutamate [NMDA] receptor
test-details: Inhibition of NMDA receptor (unknown origin)
measured-parameter: IC50 (µM)

>  <structure-as-smiles>
Cc1ccc2[nH]c3c(c2c1)CN(CCCCCCN1CCc2[nH]c4ccc(C)cc4c2C1)CC3

>  <measurement-units>
µM

>  <val>
11

$$$$
